assay procedure: NCI Yeast Anticancer Drug Screen. Data for the bub3 strain (AID 167)
condition info: S. cerevisiae bub3 mutant strain, at 50.0 µM
The panel holds about 79,000 compounds, 15% with a hit somewhere; the sample as a whole holds those more often. Active and inactive are the calls of the source. No stated cut-off is given here; in the data, active means growth inhibition above about 70%; inactive means the rest.
API: response.call in active, inactive

Problem: Dear all, I need the recorded test outcome for CN(NC(=O)/C(=C/c1cc(Cl)cc(Cl)c1O)NC(=O)c1ccccc1)c1cnn(-c2ccccc2)c(=O)c1Cl , thank you.
Result: inactive

Problem: For Nc1ccc(S(=O)(=O)Nc2cc(Cl)cc(Cl)c2)cc1 , what call appears in the results of this test?
Result: active

Problem: Hi, sorry to bother you, what did the test record for CCN(CC)C(=S)N/N=C(\C)c1cccc(C)n1 ?
Result: active

Problem: Which outcome was assigned to CC(C)(C)[Si](C)(C)OCC1OC(n2cnc3c(NC(=O)c4ccccc4)ncnc32)CC1O (stereo not given) in this test?
Result: inactive

Problem: Status in this test for O=C(O)/C(=C\c1ccc(Cl)cc1)c1ccc(C(F)(F)F)cc1[N+](=O)[O-] ?
Result: active

Problem: Dear colleague, could you share the recorded outcome for O=Nc1c2n[nH]c1CCCCCCCCC2 when you have a moment?
Result: active

Problem: Write down the call the test reported for this compound. Item: [O-][N+]1=C2CCC/C(=N/O)C2(O)C2CCCCC21N1CCOCC1 (stereo not given)
Result: inactive

Problem: Hi, sorry to bother you, what did the test record for Cc1ccc([P+](CCN2C(=O)c3ccccc3C2=O)(c2ccc(C)cc2)c2ccc(C)cc2)cc1 ?
Result: active

Problem: Could you check what this test reported for Cc1ccc2c(-c3ccccc3)c3ccccc3cc2c1C ?
Result: inactive

Problem: Per the assay record, what outcome was assigned to CS(=O)(=O)C(=Cc1ccccc1Cl)S(C)(=O)=O ?
Result: inactive

* * *

assay procedure: NCI Yeast Anticancer Drug Screen. Data for the mec2-1 strain (AID 157)
condition info: S. cerevisiae mec2-1 strain, at 5.0 µM (retest, dose inferred, filed as 0.5), hits give high values
Protocol: Growth inhibition of yeast strains with defined genetic alterations is measured as a screen for potential anti-cancer activity. Selected strains with alterations in DNA damage repair or cell cycle control were exposed to compounds and growth inhibition was measured relative to vehicle treated controls. The strain used in this assay is mec2-1
This is part of a sample that, as a whole, favours compounds with a hit. Of some 79,000 tested, about 15% had one in any assay.
measurement label: growth inhibition (%)
The response must be a number in % with no trailing unit.

Problem: Record request: growth inhibition value, item Cc1ccc(S(=O)(=O)N/N=C2\CC(C)OC3=C2CCCCCC3)cc1 (stereo unspecified)
Result: 0

Problem: So what's the measured growth inhibition for this one? COc1ccc(C(O)/C(=N\NC(N)=S)c2nc3ccc([N+](=O)[O-])cc3[nH]c2=O)cc1OC (stereo unspecified)
Result: 1

Problem: Which measured growth inhibition value corresponds to Cc1ccc2c(c1)C1C(CC2)C2C(=O)OC(=O)C2C2CCc3ccc(C)cc3C21 (stereo unspecified) ?
Result: 21

Problem: growth inhibition lookup needed for O=C(CC(=O)c1ccccc1)CC(=O)c1ccccc1 , thanks.
Result: 24

Problem: So what's the measured growth inhibition for this one? CC(=O)N1C(c2[nH]c3ccccc3c2Cc2ccccc2)CCN1c1ccccc1 (stereo unspecified)
Result: -14

Problem: Please look up its growth inhibition: O=[N+]([O-])/C(Cl)=C(/C(Cl)=C(Cl)Cl)N1CCCCC1
Result: 8

The measurements presented in this section are drawn from PubChem BioAssay (NCI).
